A collection of compounds and their measured Plant response rating, Lambsquarters
Tested on: lambsquarters (Chenopodium album)
assay_overview: Test C postemergence, plant response rating
Format: in vivo
recorded_conditions: 31 g ai/ha, scale 0 to 100
The answer should be written as a number, with no unit following it.

# count of solved cases: 3
N#Cc1cccc(Oc2ncc(Cl)cn2)c1CCCC(F)(F)F 85
CCCCC(=O)c1c(Oc2ncc(Cl)cn2)cccc1C(F)(F)F 90
N#Cc1cccc(Oc2ncc(Cl)cn2)c1COCCC(F)(F)F 75

Now, please, on to the next compound.
Enquiry: Report value only: Plant response rating, Lambsquarters, lambsquarters (Chenopodium album), O=C(OCCC(F)(F)F)c1c(Br)cccc1Oc1ncc(Br)cn1
Return: 70

----------
System: barnyardgrass (Echinochloa crus-galli)
assay_overview: Test A postemergence, visual injury rating
Format: in vivo
recorded_conditions: 31 g ai/ha, 0 to 100 scale, 0 is no effect, 100 is complete control, approximately 10 days
recorded_metric: Barnyardgrass plant response rating

compound	system_under_test	recorded_value
CN(CCCC(F)(F)F)c1c(C#N)cccc1Oc1ncc(Cl)cn1 [Compound 126]	barnyardgrass (Echinochloa crus-galli)	0
N#Cc1cccc(Oc2ncc(Cl)cn2)c1C(=O)CCC(F)(F)F [Compound 142]	barnyardgrass (Echinochloa crus-galli)	0

# context switch: different compound, same Barnyardgrass plant response rating
Enquiry: Please supply the value of reported Barnyardgrass plant response rating for the item O=C(OC(CCl)CCl)c1c(Br)cccc1Oc1ncc(Cl)cn1 [Compound 36]
Return: 0

----------
Plant response rating, Barnyardgrass overview
System: barnyardgrass (Echinochloa crus-galli)
assay_overview: Test A preemergence, visual injury rating
Type: in vivo
recorded_conditions: 31 g ai/ha, 0 to 100 scale, 0 no effect, 100 complete control
Lab note: jot the number down without any unit.

Worked examples, 5 compounds total:
compound	Plant response rating, Barnyardgrass
CC(=NOCCC(F)(F)F)c1c(Br)cccc1Oc1ncc(Cl)cn1	0
CCOc1cccc(Oc2ncc(Cl)cn2)c1C(=O)OCCC(F)(F)F	0
CCCCC(C#N)c1c(Br)cccc1Oc1ncc(Cl)cn1 (stereo not drawn)	0
O=C(OCCC(F)(F)F)c1c(Oc2ncc(Cl)cn2)cccc1C(F)(F)F	0
CCCCC(=O)c1c(C#N)cccc1Oc1ncc(Cl)cn1	10

Shift focus to the following entry.
Enquiry: Note down Plant response rating, Barnyardgrass recorded for C=CC(C)COC(=O)c1c(Br)cccc1Oc1ncc(Cl)cn1 (stereo not drawn)
Return: 0

----------
System: Italian ryegrass (Lolium multiflorum)
assay_overview: Test A preemergence, visual injury rating
Format: in vivo
recorded_conditions: 125 g ai/ha, 0 to 100 scale (0 no effect, 100 complete control)
Overview of recorded Plant response rating, Ryegrass, Italian for various compounds
I'd appreciate a reply containing only the number, no unit.

Worked set:
compound	Plant response rating, Ryegrass, Italian
Cc1cccc(Oc2ncc(Cl)cn2)c1C(=O)OCCC(F)(F)F	30
CC(=NOC(C)C)c1c(Cl)cccc1Oc1ncc(Cl)cn1	0
N#CC(CCCC(F)(F)F)c1ccccc1Oc1ncc(Cl)cn1 (centres unmarked)	70
FC(F)(F)CCCCCc1c(Br)cccc1Oc1ncc(Cl)cn1	0

# next compound below
Enquiry: In one line, give reported Plant response rating, Ryegrass, Italian of the entry CCCCCC(C#N)c1ccccc1Oc1ncc(Cl)cn1 (centres unmarked) .
Return: 10

----------
Plant response rating, Ryegrass, Italian reference
System: ryegrass, Italian (Italian ryegrass, Lolium multiflorum)
assay_overview: Test C preemergence, plant response rating
Type: in vivo
recorded_conditions: Preemergence; 31 g ai/ha; scale 0 to 100
Answer with a number only.

For orientation, consider the following solved cases.
O=C(CCCCC(F)(F)F)c1c(Br)cccc1Oc1ncc(Cl)cn1 0
O=C(CCC(F)(F)F)c1c(Br)cccc1Oc1ncc(Cl)cn1 5
O=C(CCCC(F)(F)F)c1c(Br)cccc1Oc1ncc(Cl)cn1 30
FC(F)(F)CCCCc1c(Br)cccc1Oc1ncc(Cl)cn1 10
O=C(OCCC(F)(F)F)c1c(Br)cccc1Oc1ncc(Br)cn1 30
FC(F)(F)CCCc1c(Br)cccc1Oc1ncc(Cl)cn1 5

Okay, now this compound:
Enquiry: In one line, give reported Plant response rating, Ryegrass, Italian of the entry CCCCC(=O)c1c(Br)cccc1Oc1ncc(Cl)cn1 .
Return: 10
